test system: NCI-H522 lung; assay: NCI tumour cell line growth inhibition, 48 h
measurement type: TGI (µM)
Reply with just the number (in µM).

COc1ccc(N=Nc2c(O)ccc3ccccc23)cc1 :: 60.9

Query: What measured TGI is associated with O=CC1C(Cl)=Nc2nc3ccccc3n2C1c1ccc([N+](=O)[O-])cc1 (stereo not given) on NCI-H522 lung?
Response: 12.8

* * *

tested on: NCI-H460 lung; assay: NCI tumour cell line growth inhibition, 48 h
measurement type: TGI

Answered examples (2):
O=C(/C=C(\N=P(c1ccccc1)(c1ccccc1)c1ccccc1)C(F)(F)C(F)(F)C(F)(F)C(F)(F)C(F)(F)C(F)(F)C(F)(F)F)c1ccccc1 :: > 100 µM
O=C1c2ccccc2C2=Cc3ccccc3C(O)N12 (stereo not given) :: > 100 µM

Query: Fill in: TGI of COS(=O)(=O)OCCC(NC(=O)OCc1ccccc1)C(=O)OCc1ccccc1 (stereo not given) is ___
Response: > 100 µM

Query: Fill in: TGI of Cc1ccc(NCCN2CCCCC2)c2c(=O)c3ccccc3sc12 is ___
Response: 3.88 µM

Query: Fill in: TGI of Cn1c2c(c3ccccc31)C1C(=O)N(c3ccccc3)C(=O)C1CC2 (stereo not given) is ___
Response: > 303 µM

* * *

test system: TK-10 renal; experiment: NCI tumour cell line growth inhibition, 48 h
Below: a set of entries, each annotated with reported TGI.

Answered examples (3):
Cc1cn(C2CC(n3cncn3)C(C(C)O)O2)c(=O)[nH]c1=O (stereo unspecified) :: > 100 µM
Cc1ccc(NCCN2CCCCC2)c2c(=O)c3ccccc3sc12 :: 5.82 µM
O=C(O)c1c(-c2ccccc2)c(=O)[nH]c2ccccc12 :: > 100 µM

Query: Fill in: TGI of NC1=NS(=O)(=O)Nc2nc(-c3ccccc3)c(-c3ccccc3)nc21 is ___
Response: > 100 µM

Query: Fill in: TGI of CCOC(=O)C1C(=O)CC(O)(c2ccccc2)C(C(=O)OCC)C1c1ccc(N(C)C)cc1 (stereo unspecified) is ___
Response: > 100 µM

Query: Fill in: TGI of COc1cc(-c2cc(/C=C/C(=O)c3ccc(N)cc3)[nH]n2)cc(OC)c1OC is ___
Response: 17.5 µM

Query: Fill in: TGI of CS(=O)(=O)Nc1ccc(Nc2c3ccccc3nc3cc(N)ccc23)cc1 is ___
Response: 31.7 µM

Query: Fill in: TGI of CN(CC(=O)O)S(=O)(=O)c1ccc(F)cc1 is ___
Response: > 100 µM

Query: Fill in: TGI of CCCN1C(=O)/C(=C/c2cccc(O)c2)SC1=Nc1ccc(OC)cc1 is ___
Response: 19.5 µM

Query: Fill in: TGI of CCCCCC(/C=C/C1CCC(=O)C1)OCOCCOC (stereo unspecified) is ___
Response: > 100 µM

Query: Fill in: TGI of Nc1nc(=S)c2c(ncn2CC(O)CO)[nH]1 (stereo unspecified) is ___
Response: > 100 µM

* * *

test system: DU-145 prostate; experiment: NCI tumour cell line growth inhibition, 48 h
measurement type: TGI

COc1ccc(C(=O)n2nc(/C=C/c3ccc(O)c(OC)c3)cc2/C=C/c2ccc(O)c(OC)c2)cc1 :: 4.56 µM

Query: Fill in: TGI of CC(C)(OCc1ccccc1)c1ccccc1P(c1ccccc1)c1ccccc1 is ___
Response: > 100 µM

Query: Fill in: TGI of O=C(Nc1ccccc1)c1cc(S(=O)(=O)Nc2nc3ncccc3[nH]2)c(SSc2cc(Cl)c(C(=O)Nc3ccccc3)cc2S(=O)(=O)Nc2nc3ncccc3[nH]2)cc1Cl is ___
Response: > 100 µM

Query: Fill in: TGI of COP(=O)(OC)C(C)(C)NC(=O)NC(F)(F)F is ___
Response: > 100 µM

Query: Fill in: TGI of Nc1ccc2nc3n(c(=O)c2c1)CCCCC3 is ___
Response: > 100 µM
